ASSAY_NOTES: Hydrolysis in acidic medium (pH 1)
Type: physicochemical
EXPERIMENTAL_PARAMETERS: HCl 0.1M, 250 μM, 37°C
Item-by-item account of pH 1 stability (% after 3 h)
READOUT_NAME: pH 1 stability (% after 3 h)

- COMPOUND: "O=C(CCC(CO[N+](=O)[O-])O[N+](=O)[O-])Oc1ccccc1C(=O)O (centres unmarked) [Compound (6)]"
  VALUE: ">85%"
- COMPOUND: "CC(=O)Oc1ccccc1C(=O)O [Acetylsalicylic acid, reference compound]"
  VALUE: ">90%"
- COMPOUND: "O=C(CCO[N+](=O)[O-])Oc1ccccc1C(=O)O [Compound (1)]"
  VALUE: ">90%"
- COMPOUND: "O=C(CCCC(CO[N+](=O)[O-])O[N+](=O)[O-])Oc1ccccc1C(=O)O (centres unmarked) [Compound (7)]"
  VALUE: ">85%"
- COMPOUND: "O=C(CCOc1no[n+]([O-])c1S(=O)(=O)c1ccccc1)Oc1ccccc1C(=O)O [Compound (11)]"
  VALUE: ">90%"
